Hello, the source for this data is patent US20250296992A1, in case you need it.

biological target: T1, human SLITRK6 extracellular domain linked to his tag (human, UniProt Q9H5Y7 27-608); test: BLI binning on huSLITRK6-his; Ab1 = row antibody first, then Ab2 (competitor) = hu1H2-03
T1 construct: extracellular domain; also called huSLITRK6; Hu SLITRK6; not shown: his tag
endpoint.label: epitope binning signal
Answer with a number only.

Answered cases to consult:
# binder, epitope binning signal
data = [
    ("hu1H2-03 (antibody, V domains shown, see m20) VH: EVQLVESGGGLVQPGGSLRLSCAASGFTFSDYGLHWVRQAPGKGLEWVSYISSGSSTVYFADTLKGRFTISRDNAKNSLYLQMNSLRAEDTAVYYCTRGTWYFDVWGRGTLVTVSS VL: DIQMTQSPSSLSASVGDRVTITCRTSENIHSYLAWYQQKPGKSPQLLVYNAKTLADGVPSRFSGSGSGTDYTLTISSLQPEDFGTFYCQHFWTTSRTFGGGTKVEIK", 0.0113),
    ("Sirtratumab (antibody, V domains shown, Prior-art benchmark antibody; also called Sirtratuzumab) VH: QVQLVESGGGVVQPGRSLRLSCAASGFTFSSYGMHWVRQAPGKGLEWVAVIWYDGSNQYYADSVKGRFTISRDNSKNTLFLQMHSLRAEDTAVYYCARGLTSGRYGMDWGQGTTVTVSS VL: DIVMTQSPLSLPVTPGEPASISCRSSQSLLLSHGFNYLDWYLQKPGQSPQLLIYLGSSRASGVPDRFSGSGSGTDFTLKISRVEAEDVGLYYCMQPLQIPWTFGQGTKVEIK", 0.281),
]

Quick one: epitope binning signal for hu14G1-03 (antibody, V domains shown) VH: EVQLVESGGGLVQPGGSLRLSCAASGFTFSDYGMHWVRQAPGKGLEWVSYISPGSSTIYYADTMKGRFTISRDNAKNSLYLQMNSLRAEDTAVYYCARAYGGSYWYFAVWGQGTLVTVSS VL: DIQMTQSPSSLSASVGDRVTITCRASGNIHSYLAWYQQKPGKSPQLLVYNAKTLADGVPSRFSGSGSGTDYTLTISSLQPEDFGTYYCQHFWSTPYTFGGGTKLEIK ? 0.0244

So what does the record say about epitope binning signal for phA108 (antibody, V domains shown, From phage display, then full-length construction; Only the variable regions are tied to the name) VH: QVQLVQSGAEVKKPGASVKVSCTASGYIFNDYYLHWVRQAPGQGLEWVGIINPSGGSPVYAQKFQGRVTMTRDTSTNTVYMELSSLRSEDTAVYYCARGMVRGVRLFDYWGQGTLVTVSA VL: EIVLTQSPATLSLSPGERATLSCRASQSVSSYLAWYQQKPGQTPRLLIYDASNRATGVPARFSGSGSGTDFTLTISSLETEDFAVYYCQQRTNWPLTFGGGTKVEIK ? 0.292
